Biological target: human O-GlcNAcase (Homo sapiens (Human))
Sequence (O60502 whole entry): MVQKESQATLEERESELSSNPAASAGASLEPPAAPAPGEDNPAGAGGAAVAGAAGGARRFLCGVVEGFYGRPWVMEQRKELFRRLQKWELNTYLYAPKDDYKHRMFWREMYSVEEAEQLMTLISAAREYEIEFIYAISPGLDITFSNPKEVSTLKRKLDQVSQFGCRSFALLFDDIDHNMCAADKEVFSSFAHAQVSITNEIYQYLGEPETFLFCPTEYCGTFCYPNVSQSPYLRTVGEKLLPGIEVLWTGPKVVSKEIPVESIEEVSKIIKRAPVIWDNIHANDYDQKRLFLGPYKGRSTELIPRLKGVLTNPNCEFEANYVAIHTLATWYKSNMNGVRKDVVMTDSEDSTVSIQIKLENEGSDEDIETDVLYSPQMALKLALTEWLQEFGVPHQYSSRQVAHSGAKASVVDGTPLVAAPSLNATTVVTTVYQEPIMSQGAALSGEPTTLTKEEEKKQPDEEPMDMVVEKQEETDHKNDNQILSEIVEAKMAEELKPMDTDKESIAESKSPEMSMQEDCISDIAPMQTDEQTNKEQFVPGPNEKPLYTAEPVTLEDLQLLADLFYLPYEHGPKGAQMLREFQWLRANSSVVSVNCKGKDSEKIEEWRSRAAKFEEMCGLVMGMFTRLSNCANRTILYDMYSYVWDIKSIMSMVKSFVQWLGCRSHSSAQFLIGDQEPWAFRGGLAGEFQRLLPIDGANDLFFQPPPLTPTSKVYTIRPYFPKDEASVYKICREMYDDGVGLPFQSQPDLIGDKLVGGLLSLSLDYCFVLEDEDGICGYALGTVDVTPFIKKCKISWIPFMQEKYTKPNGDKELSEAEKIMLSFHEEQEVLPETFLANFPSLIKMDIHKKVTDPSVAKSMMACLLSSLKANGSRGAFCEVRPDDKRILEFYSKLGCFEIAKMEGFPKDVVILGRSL
Experiment: biochemical
Type: biochemical
Settings: purified human O-GlcNAcase 0.7 nM, pH 7.0, room temperature, Cheng-Prusoff; read-out: OGA KI
Cut-off 2 nM on Ki: below means criterion met, at or above means criterion not met.

line notation | discrete label
CN(C)C1=N[C@@H]2[C@@H](O)[C@H](O)[C@@H]([C@@](CCc3ccccc3)(OCc3ccccc3)C(F)(F)F)O[C@@H]2S1 | criterion not met
CN(C)C1=N[C@@H]2[C@@H](O)[C@H](O)[C@@H]([C@@H](OCc3cccnc3)C(F)(F)F)O[C@@H]2S1 | criterion not met
CN(C)C1=N[C@@H]2[C@@H](O)[C@H](O)[C@@H]([C@@H](OCc3ccc(CCF)cc3)C(F)(F)F)O[C@@H]2S1 | criterion met
CN(C)C1=N[C@@H]2[C@@H](O)[C@H](O)[C@@H]([C@@H](OCc3ccc(F)cc3)C(F)(F)F)O[C@@H]2S1 | criterion met

Consider the record given below.
q: Determine whether this compound shows Ki lower than 2 nM (ties excluded): CNC1=N[C@@H]2[C@@H](O)[C@H](O)[C@@H]([C@@H](OCc3ccc(C)cc3)C(F)(F)F)O[C@@H]2S1
a: criterion not met

---

Assay: Assay for determination of apparent permeability (Papp), bi-directional transport
Settings: pig, LLC-PK1
Outcome: T for Papp at 3 h, 1 μM of at least 30 ×10⁻⁶ cm/s; F for anything lower.

compound | discrete label
CNC1=N[C@@H]2[C@@H](O)[C@H](O)[C@@H]([C@@H](Oc3ccccc3)C(F)(F)F)O[C@@H]2S1 [Example 4] | F
CO[C@@](C)([C@H]1O[C@@H]2SC(N(C)C)=N[C@@H]2[C@@H](O)[C@@H]1O)C(F)(F)F (single isomer, unassigned) [Example 74] | F
CCCO[C@H]([C@H]1O[C@@H]2SC(NC)=N[C@@H]2[C@@H](O)[C@@H]1O)C(F)(F)F [Example 79] | F
CNC1=N[C@@H]2[C@@H](O)[C@H](O)[C@@H]([C@H](Oc3ccccc3)C(F)(F)F)O[C@@H]2S1 [Example 3] | F

Consider the record given below.
q: Could you please find out whether C[C@H](O[C@H]([C@H]1O[C@@H]2SC(N(C)C)=N[C@@H]2[C@@H](O)[C@@H]1O)C(F)(F)F)c1ccccc1 [Example 47] has Papp at 3 h, 1 μM that meets 30 ×10⁻⁶ cm/s or exceeds it?
a: T

---

Molecular target: human O-GlcNAcase (Homo sapiens (Human))
Experiment: biochemical
Format: biochemical
Conditions: comparative compounds described in PCT/US11/059668; read-out: OGA KI
# Ki per record follows
Your answer should be a plain number; it is taken to be in nM.

Use the examples below as a reference point.
line notation | measured target | unit symbol | numeric value
CNC1=N[C@@H]2[C@@H](O)[C@H](O)[C@@H]([C@@H](OCc3ccc(Cc4ccccc4)cc3)C(F)(F)F)O[C@@H]2S1 | human O-GlcNAcase (Homo sapiens (Human)) | nM | 0.16
CNC1=N[C@@H]2[C@@H](O)[C@H](O)[C@@H]([C@](C)(O)C(F)(F)F)O[C@@H]2S1 | human O-GlcNAcase (Homo sapiens (Human)) | nM | 1.29

Turning now to a further record.
q: Consider the compound shown here: CNC1=N[C@@H]2[C@@H](O)[C@H](O)[C@@H]([C@H](C)OC)O[C@@H]2S1 What is its recorded Ki?
a: 4.26

---

Experiment: Assay for determination of apparent permeability (Papp), bi-directional transport
Settings: pig, LLC-PK1
measured property: Papp at 3 h, 1 μM (nm/s)
Your answer should be a plain number; it is taken to be in nm/s.

Use the examples below as a reference point.
molecule | Papp at 3 h, 1 μM, nm/s
CN(C)C1=N[C@@H]2[C@@H](O)[C@H](O)[C@@H](C(OCc3cccc(F)c3)C(F)(F)F)O[C@@H]2S1 (stereo in doubt) | 299
CN(C)C1=N[C@@H]2[C@@H](O)[C@H](O)[C@@H]([C@@H](OCc3ccccc3C(F)(F)F)C(F)(F)F)O[C@@H]2S1 | 341

q: Consider the molecule shown here: CN(C)C1=N[C@@H]2[C@@H](O)[C@H](O)[C@@H]([C@@H](OCc3ccc(CF)cc3)C(F)(F)F)O[C@@H]2S1 What is its recorded Papp at 3 h, 1 μM?
a: 311

---

Experiment: Assay for determination of apparent permeability (Papp), bi-directional transport
Conditions: pig, LLC-PK1
# Papp at 3 h, 1 μM per record follows
Your answer should be a plain number; it is taken to be in ×10⁻⁶ cm/s.

Use the examples below as a reference point.
compound | unit symbol | Papp at 3 h, 1 μM
CCN(C)C1=N[C@@H]2[C@@H](O)[C@H](O)[C@@H]([C@@H](OC)C(F)(F)F)O[C@@H]2S1 [Example 73] | ×10⁻⁶ cm/s | 19.9
CNC1=N[C@@H]2[C@@H](O)[C@H](O)[C@@H]([C@@H](OCc3ccc(Oc4ccccc4)cc3)C(F)(F)F)O[C@@H]2S1 [Example 99] | ×10⁻⁶ cm/s | 21.7
CN(C)C1=N[C@@H]2[C@@H](O)[C@H](O)[C@@H]([C@@H](OCc3cccnc3)C(F)(F)F)O[C@@H]2S1 [Example 42] | ×10⁻⁶ cm/s | 15.2
COc1ccccc1CO[C@@H]([C@H]1O[C@@H]2SC(N(C)C)=N[C@@H]2[C@@H](O)[C@@H]1O)C(F)(F)F [Example 49] | ×10⁻⁶ cm/s | 29.8
CN(C)C1=N[C@@H]2[C@@H](O)[C@H](O)[C@@H]([C@@H](OCc3ccccc3F)C(F)(F)F)O[C@@H]2S1 [Example 61] | ×10⁻⁶ cm/s | 29

q: Consider the compound shown here: CCc1ccc(CO[C@H]([C@H]2O[C@@H]3SC(NC)=N[C@@H]3[C@@H](O)[C@@H]2O)C(F)(F)F)cc1 [Example 86] What is its recorded Papp at 3 h, 1 μM?
a: 29.9

q: Consider the compound shown here: CN(C)C1=N[C@@H]2[C@@H](O)[C@H](O)[C@@H]([C@@H](OCc3ccc(Oc4ccccc4)cc3)C(F)(F)F)O[C@@H]2S1 [Example 57] What is its recorded Papp at 3 h, 1 μM?
a: 16.4

q: Consider the compound shown here: COc1ccc(CO[C@@H](C)[C@H]2O[C@@H]3SC(N(C)C)=N[C@@H]3[C@@H](O)[C@@H]2O)cc1 [Example 109] What is its recorded Papp at 3 h, 1 μM?
a: 26.3

q: Consider the compound shown here: CN(C)C1=N[C@@H]2[C@@H](O)[C@H](O)[C@@H]([C@H](OCc3ccccc3F)C(F)(F)F)O[C@@H]2S1 [Example 62] What is its recorded Papp at 3 h, 1 μM?
a: 31.1

q: Consider the compound shown here: CO[C@H]([C@H]1O[C@@H]2SC(N(C)C)=N[C@@H]2[C@@H](O)[C@@H]1O)C(F)(F)F [Example 2] What is its recorded Papp at 3 h, 1 μM?
a: 20.8

q: Consider the compound shown here: CN(C)C1=N[C@@H]2[C@@H](O)[C@H](O)[C@@H]([C@@H](OCCCF)C(F)(F)F)O[C@@H]2S1 [Example 29] What is its recorded Papp at 3 h, 1 μM?
a: 20.9

q: Consider the compound shown here: CCO[C@@H]([C@H]1O[C@@H]2SC(N(C)C)=N[C@@H]2[C@@H](O)[C@@H]1O)C(F)(F)F [Example 22] What is its recorded Papp at 3 h, 1 μM?
a: 27.2

q: Consider the compound shown here: CNC1=N[C@@H]2[C@@H](O)[C@H](O)[C@@H]([C@@H](OCc3ccc(OC)c(C(F)(F)F)c3)C(F)(F)F)O[C@@H]2S1 [Example 98] What is its recorded Papp at 3 h, 1 μM?
a: 29.1

---

# Papp at 3 h, 1 μM per record follows
Experiment: Assay for determination of apparent permeability (Papp), bi-directional transport
Details: pig, LLC-PK1
Your answer should be a plain number; it is taken to be in ×10⁻⁶ cm/s.

line notation | unit symbol | Papp at 3 h, 1 μM
C=CCOc1ccc(CO[C@H]([C@H]2O[C@@H]3SC(N(C)C)=N[C@@H]3[C@@H](O)[C@@H]2O)C(F)(F)F)cc1 | ×10⁻⁶ cm/s | 29.8
CNC1=N[C@@H]2[C@@H](O)[C@H](O)[C@@H]([C@@H](OCc3ccc(F)cc3)C(F)(F)F)O[C@@H]2S1 | ×10⁻⁶ cm/s | 25.4

Turning now to a further record.
q: Consider the compound shown here: CN(C)C1=N[C@@H]2[C@@H](O)[C@H](O)[C@@H]([C@@H](OCCC3CCCCC3)C(F)(F)F)O[C@@H]2S1 What is its recorded Papp at 3 h, 1 μM?
a: 33.3
